Source listed as PubChem BioAssay (NCATS).

# System: HACAT
# assay remarks: qHTS assay to identify novel small-molecules to repurpose for Merkel cell carcinoma treatment (AID 1296009); note: nearly all actives have a fitted effect of over 60% in size
# details: MCC and control cell lines, CellTiter-Glo viability, 72 h; series mostly up to 44.8 µM
Records with an inconclusive call do not appear. Active and inactive are the calls of the source. Calls come from the whole dose curve; as a rule, active = well fitted inhibition curve with a large enough effect; inconclusive = small, poorly fitted or top-dose-only effect; inactive = flat fitted curve, though single readings scatter.
assay metric: outcome

Below, 5 molecules whose answers are already recorded.
1. CC12CCC(OC3OC(CO)C(O)C(OC4OC(CO)C(O)C(O)C4O)C3O)CC1=CCC1C2CCC2(C)/C(=C3/COC(=O)C3)CCC12O (centres undefined) = inactive
2. O=C(O)c1ccccc1NCCc1ccccc1 = inactive
3. COc1ncc2cc(C(=O)Nc3cc(C(=O)NCc4cccc(Cl)c4)ccc3Cl)c(=O)[nH]c2n1 = inactive
4. COc1c2cc(c(O)c1OC)-c1cc(ccc1O)CCC(O)CCCC2 (centres undefined) = inactive
5. COc1ccc(-c2cnc3ccc(NCc4ccc(S(N)(=O)=O)cc4)nn23)cc1OC = inactive

# ---- query molecule ----
Input: Requested read-out outcome, target or system HACAT, entry `COC(=O)C1=CO[C@@H](O[C@@H]2O[C@H](CO)[C@@H](O)[C@H](O)[C@H]2O)[C@H]2[C@@H]1C=C[C@@]21C=C([C@H](C)O)C(=O)O1`
Output: inactive
